Ref: ChEMBL document CHEMBL1134236

# System: Staphylococcus aureus
# Experimental Details: Minimum inhibitory concentration against methicillin-resistant Staphylococcus aureus (MRSA) A27223 in the presence of 50% calf serum.
# Assay type: functional
Here, each record is paired with measured MIC data.
Assay Metric: MIC (µg/mL)

Cc1cc(SCC2=C(C(=O)O)N3C(=O)[C@@H](NC(=O)CSc4cc(Cl)ccc4Cl)[C@H]3SC2)cc(CCC(=O)O)[n+]1CCN.O=C(O)C(F)(F)F.O=C([O-])C(F)(F)F; 2
NCCC[n+]1ccc(SCC2=C(C(=O)O)N3C(=O)[C@@H](NC(=O)CSc4cc(Cl)ccc4Cl)[C@H]3SC2)cc1CCC(=O)O.O=C(O)C(F)(F)F.O=C([O-])C(F)(F)F; 2
Cc1cc(SCC2=C(C(=O)[O-])N3C(=O)[C@@H](NC(=O)CSc4cc(Cl)ccc4Cl)[C@H]3SC2)cc(CCc2ccc(Cl)s2)[n+]1CC[C@@H](O)C(=O)O; 8
Cc1cc(SCC2=C(C(=O)[O-])N3C(=O)[C@@H](NC(=O)CSc4cc(Cl)ccc4Cl)[C@H]3SC2)cc(CCC(=O)O)[n+]1-c1cccc(O)c1; 8
CSCCC[n+]1c(C)cc(SCC2=C(C(=O)[O-])N3C(=O)[C@@H](NC(=O)CSc4cc(Cl)ccc4Cl)[C@H]3SC2)cc1CCC(=O)O; 4
Cc1cc(SCC2=C(C(=O)[O-])N3C(=O)[C@@H](NC(=O)CSc4cc(Cl)ccc4Cl)[C@H]3SC2)cc(CCC(=O)O)[n+]1Cc1cccs1; 8
